Task for the reader: assign each of the following molecules its reported number of osteoclasts (fig. 1f).
# Tested on: BMM cells
# EXPERIMENTAL PROTOCOL: Osteoclastogenic assay of WT, single-point mutated sRANKL and L-RANKL
# Assay type: cell-based, mouse
# RUN PARAMETERS: BMMs, M-CSF 10 ng/mL, sRANKL protein 100 ng/mL
Numbers only.

[
  {
    "MOLECULE": "D301A: single-point mutated rat sRANKL (protein, left off: His6, N-terminal, cleaved | SUMO, N-terminal, cleaved, single-point mutated rat sRANKL) KPEAQPFAHLTINAADIPSGSHKVSLSSWYHDRGWAKISNMTLSNGKLRVNQDGFYYLYANICFRHHETSGSVPADYLQLMVYVVKTSIKIPSSHNLMKGGSTKNWSGNSEFHFYSINVGGFFKLRAGEEISVQVSNPSLLAPDQDATYFGAFKVQDID",
    "number of osteoclasts (fig. 1f)": 0
  },
  {
    "MOLECULE": "K182A: single-point mutated rat sRANKL (protein, left off: His6, N-terminal, cleaved | SUMO, N-terminal, cleaved, single-point mutated rat sRANKL) KPEAQPFAHLTINAADIPSGSHAVSLSSWYHDRGWAKISNMTLSNGKLRVNQDGFYYLYANICFRHHETSGSVPADYLQLMVYVVKTSIKIPSSHNLMKGGSTKNWSGNSEFHFYSINVGGFFKLRAGEEISVQVSNPSLLDPDQDATYFGAFKVQDID",
    "number of osteoclasts (fig. 1f)": 0
  }
]

Moving on to the next molecule.
Tell me the measured number of osteoclasts (fig. 1f) of R224A: single-point mutated rat sRANKL (protein, left off: His6, N-terminal, cleaved | SUMO, N-terminal, cleaved, single-point mutated rat sRANKL) KPEAQPFAHLTINAADIPSGSHKVSLSSWYHDRGWAKISNMTLSNGKLRVNQDGFYYLYANICFAHHETSGSVPADYLQLMVYVVKTSIKIPSSHNLMKGGSTKNWSGNSEFHFYSINVGGFFKLRAGEEISVQVSNPSLLDPDQDATYFGAFKVQDID , please.
0

These data points were gathered from paper PMC9468151.
